Measured on: D(1A) dopamine receptor (Homo sapiens) (UniProt P21728)
Sequence (P21728 whole entry, looked up): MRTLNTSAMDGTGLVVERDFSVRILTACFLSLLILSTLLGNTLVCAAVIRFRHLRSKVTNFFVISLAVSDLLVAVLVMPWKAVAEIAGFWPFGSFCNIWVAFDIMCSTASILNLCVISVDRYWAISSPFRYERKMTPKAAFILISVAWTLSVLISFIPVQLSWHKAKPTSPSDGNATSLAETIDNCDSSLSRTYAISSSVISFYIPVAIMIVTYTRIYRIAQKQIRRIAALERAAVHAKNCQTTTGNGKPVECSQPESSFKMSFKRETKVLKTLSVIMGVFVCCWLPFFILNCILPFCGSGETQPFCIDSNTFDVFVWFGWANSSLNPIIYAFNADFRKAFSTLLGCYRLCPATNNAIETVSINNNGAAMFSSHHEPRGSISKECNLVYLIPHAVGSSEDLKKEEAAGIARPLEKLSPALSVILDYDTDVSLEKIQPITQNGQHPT
Measurement description: HTS Assay for Allosteric Agonists of the Human D1 Dopamine Receptor: Primary Screen for Antagonists (AID 488983);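 note: calcium flux response to an EC80 dopamine challenge measured with no-wash dye; nearly all actives have a fitted effect of over 65% in size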
Condition description: D1 receptor cell assay, antagonist mode, qHTS titration; series mostly up to 41.8 µM
Records with an inconclusive call do not appear. The source made the active and inactive calls. Calls come from the whole dose curve; as a rule, active = well fitted inhibition curve with a large enough effect; inconclusive = small, poorly fitted or top-dose-only effect, or effect the other way; inactive = flat fitted curve, though single readings scatter.
Outcomes: TRUE for active, FALSE for inactive

{"Molecule": "CCCCC#Cc1nc(NC)c2ncn([C@@H]3O[C@H](CO)[C@@H](O)[C@H]3O)c2n1", "Label value": "FALSE"}
{"Molecule": "COc1cc(C(O)CO)ccc1OS(=O)(=O)O (stereo not given)", "Label value": "FALSE"}
{"Molecule": "O=[N+]([O-])c1ccc(CSc2ncnc3c2ncn3[C@@H]2O[C@H](CO)[C@@H](O)[C@H]2O)cc1", "Label value": "FALSE"}
{"Molecule": "CC(C)NC[C@@H](O)c1ccc(O)c(O)c1", "Label value": "FALSE"}
{"Molecule": "O=C(O)CCCC[C@@H]1CCSS1", "Label value": "FALSE"}
{"Molecule": "CSc1ccccc1N1CCN(CCCCCC(=O)NC2CCCc3ccccc32)CC1 (stereo not given)", "Label value": "TRUE"}
{"Molecule": "O=C(/C=C/c1ccc(O)c(O)c1)OCCc1ccccc1", "Label value": "FALSE"}
{"Molecule": "O=C(c1ccc(Cl)cc1)N1CCN(c2ccc([N+](=O)[O-])c3ncccc23)CC1", "Label value": "FALSE"}
{"Molecule": "COc1ccc(/C=C/C(=O)Nc2ccccc2C(=O)O)cc1OC", "Label value": "FALSE"}
{"Molecule": "Cn1c(=O)c2[nH]c(-c3ccccc3)nc2n(C)c1=O", "Label value": "FALSE"}
{"Molecule": "Cc1ccccc1CNc1ncnc2c1ncn2C1OC(CO)C(O)C1O (stereo not given)", "Label value": "FALSE"}
{"Molecule": "C[C@@H](CN1CCC(Cc2ccccc2)CC1)[C@@H](O)c1ccc(O)cc1", "Label value": "TRUE"}
{"Molecule": "CN1[C@@H](CC(=O)c2ccccc2)CCC[C@H]1C[C@H](O)c1ccccc1", "Label value": "FALSE"}
{"Molecule": "CC(N)C(=O)OC(C)(C)Cc1ccc(Cl)cc1 (stereo not given)", "Label value": "FALSE"}
{"Molecule": "CO/S(=N\\S(=O)(=O)c1ccc(Cl)cc1)c1ccc([N+](=O)[O-])cc1 (stereo not given)", "Label value": "FALSE"}
{"Molecule": "Nc1nc(SCc2ccc([N+](=O)[O-])cc2)c2ncn([C@@H]3O[C@H](CO)[C@@H](O)[C@H]3O)c2n1", "Label value": "FALSE"}
{"Molecule": "O=C(c1cc(O)c(O)c([N+](=O)[O-])c1)c1ccccc1F", "Label value": "FALSE"}
{"Molecule": "COc1cc2c(CCNC(C)=O)c[nH]c2cc1Cl", "Label value": "FALSE"}
{"Molecule": "CCN1/C(=C/C(C)=O)Sc2ccc(OC)cc21", "Label value": "FALSE"}
{"Molecule": "CCCCC/C=C\\CC(O)/C=C/c1cccc(CC(O)CCCCO)n1 (stereo not given)", "Label value": "FALSE"}
{"Molecule": "O=C1NC(=O)/C(=C/c2ccc3nccnc3c2)S1", "Label value": "FALSE"}
{"Molecule": "Cc1cc(NC2CCCCC2)nc(-n2nc(C)cc2C)n1", "Label value": "FALSE"}
{"Molecule": "O=C1NC(O)=NC1(c1ccccc1)c1ccccc1", "Label value": "FALSE"}
{"Molecule": "C=CC(C)=C[C@@]1(C)SC(=O)C(C)=C1O", "Label value": "FALSE"}
{"Molecule": "Cn1cc(C2=C(c3ccc(Cl)cc3Cl)C(=O)NC2=O)c2ccccc21", "Label value": "FALSE"}
